Tested on: PPARg homodimer (NR concentration 180 nM)
measurementNotes: PBM binding z-score (relative to random genomic background probes); higher = stronger binding; sequences stand for … in GC…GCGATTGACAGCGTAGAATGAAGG
Please mark satisfied if the recorded PBM binding z-score is equal to or greater than 0.1, and not satisfied if it falls below.

Check out these entries, answers already filled in.
CCTAATTGGTCAGGAGGTCACACACCGGATATGA
satisfied
CAAACTAGGTCACGTAAGGTCAAAGTCGAATGAC
satisfied
TCTAGCAGGCCAGAGGGGCACTCAAGAGGTACGG
not satisfied
TCATATAGGTAATACTGGTGAAAGTCGGCATCTA
satisfied
ACTATGAGTTGACTTAGGGCAACCGATACGACGC
satisfied

We now examine a further sequence.
Q: Quick check, PBM binding z-score >= 0.1? CGAACTTGGTCATCCAGGACAGTGAATACATTGA
Result: not satisfied

###

System: LXRa homodimer (NR concentration 270 nM)
measurementNotes: PBM binding z-score (relative to random genomic background probes); higher = stronger binding; sequences stand for … in GC…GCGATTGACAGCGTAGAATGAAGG
Listing of recorded PBM binding z-score by entry.
Kindly provide the number alone.

GATGCTAGGTCAGGTTGGTCAGCTAACGGGTACG
-0.12
CCTACTGGGCCAAACGTCATTGATTCCAATGCTC
-0.236
GCTGCTAGGTCAATTGATGGTCAGCTAAAGCTCG
-0.0789

Next, consider the following sequence.
Q: // PBM binding z-score lookup, key: AGATGTAGGTTATCGGGTCATTCAGTTTGCGCAT
Result: 1.64

###

Test system: VDR:RXRa (NR concentration 270 nM, RXRa partner concentration 90 nM)
measurementNotes: PBM binding z-score (relative to random genomic background probes); higher = stronger binding; sequences stand for … in GC…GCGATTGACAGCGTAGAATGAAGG
propertyName: PBM binding z-score
Kindly provide the number alone.

ACTAGCAGGCCATGGGTCACTCAAGATTAGTCCG
0.6
GGAACGAGGGCAAGTTGATAGCTGAGTTTGATGG
0.643

Q: // PBM binding z-score lookup, key: AGAATGAGGTTACCAAAGATCAGGGAAACGCTTG
Result: 1.37

Q: Next record, please: TTTAGCAGGCCAGAGGGTCACTCAAGAGGTACGG
Result: 1.55

Q: Next record, please: ATCGGAAGGTCGAAGGTGAGTATACCCACCCGAA
Result: 1.5

Q: Next record, please: ACTTACGCGTCAACGAGGTTATAGCACGCGTATA
Result: 3.57

Q: Next record, please: AGTCAAAGTTCAGGACGAGGTAAGGTAAAGCACG
Result: 2.4

Q: Next record, please: GGAACAAGGGCATTCGAGTTGATAGCATGGCGAT
Result: 3.12

Q: Next record, please: GAAGACAGGTGAAACGCAGGTAACTCAGGGTGGC
Result: -0.438

Q: Next record, please: ATATGTAGGTTAGCTGGGGTCATACAGACTAGGC
Result: 6.08

Q: Next record, please: CTACCAAGGTAAACAAGGTCGTTGATTACTATTC
Result: 4.73

Q: Next record, please: TCTTGTAGATCAACAAGAGGTTAAGAAAGATCGA
Result: 1.08

Q: Next record, please: CGTCCAAGGTCAGAGAGGTCAGTGAATGCCGAGT
Result: 7.26

Q: Next record, please: TTACCAAGGAGAAGGTCGTTGATCCCTCTGTAGA
Result: 0.838

Q: Next record, please: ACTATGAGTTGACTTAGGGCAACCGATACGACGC
Result: 1.16

Q: Next record, please: TCTAGCAGGCCAGAGCGTCACTCAAGAGGTACGG
Result: -0.608

Q: Next record, please: CGTCCAAGGTCATAGGAGGTAAGTGAAGACAGAT
Result: 4.61

Q: Next record, please: CCTACTTGGCCATCAGGTCATTGATATCAACGTT
Result: 2.12

Q: Next record, please: ATCACTAGGTAAAAGTTCAGTGAATCCCGAGGAT
Result: 1.34

###

Listing of recorded PBM binding z-score by entry.
System: PPARg:RXRa 30nM:10nM, anti-RXR (NR concentration 30 nM, RXRa partner concentration 10 nM)
measurementNotes: PBM binding z-score (relative to random genomic background probes); higher = stronger binding; sequences stand for … in GC…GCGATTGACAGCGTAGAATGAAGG
Kindly provide the number alone.

Q: // PBM binding z-score lookup, key: TCTAGTTGGTCACGGAGTTCACACACGACGGGTA
Result: 3.07

Q: Next record, please: ATCTCAAGGTAAAGTTCAGTGAAAGATCGATAGA
Result: 1.67

###

Tested on: PPARg:RXRa DBDmut IVT, anti-RXR (DBD mutation: RXRa K156A/R161A, NR concentration 270 nM, RXRa partner concentration 90 nM)
measurementNotes: PBM binding z-score (relative to random genomic background probes); higher = stronger binding; sequences stand for … in GC…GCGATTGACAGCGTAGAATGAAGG
Please mark label 1 if the recorded PBM binding z-score is equal to or greater than 3, and label 0 if it falls below.

Check out these entries, answers already filled in.
CGAACGAGGGCATGAGTTGGTAGCAAATGCCGAT
label 0
ACGAGCAGGCCAAGGGTCACTCAAGATTAGTCCG
label 0
GCTCAGAGGACAAGGTCAGAGCTTTGTCCGTAGA
label 0
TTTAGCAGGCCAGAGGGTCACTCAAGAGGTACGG
label 0

Q: Quick check, PBM binding z-score >= 3? CTCGAAAGCTCGGTTGAGGTGAGTATACGGATAA
Result: label 0

Q: Next record, please: TCTAGTTGGTCACGTAGGTCACACACGACGGGTA
Result: label 0

Q: Next record, please: TCATATAGGGAAACAGGTGAAAGTCCGTAAGTTA
Result: label 1

Q: Next record, please: TAGCCTAGGCCATTCAGGGGCCAGTATAGAAAGC
Result: label 0

Q: Next record, please: AGAATGAGGGTAAGATCAGGGAAACAGAATACAT
Result: label 0

Q: Next record, please: CAGCCTAGGTCAGGGCCATTATAGGAGGAACGTT
Result: label 0

###

Listing of recorded PBM binding z-score by entry.
System: PXR:RXRa (NR concentration 270 nM, RXRa partner concentration 90 nM)
measurementNotes: PBM binding z-score (relative to random genomic background probes); higher = stronger binding; sequences stand for … in GC…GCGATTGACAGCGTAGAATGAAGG
Kindly provide the number alone.

CCTTACGGGTCATTCCAGGTTATAGCATCGGAGT
5.52

Next, consider the following sequence.
Q: // PBM binding z-score lookup, key: ACTTACGGGTCAACGAGTTTATAGCACGCGTATA
Result: 5.9

###

Listing of recorded PBM binding z-score by entry.
System: PPARg:RXRa IVT, anti-PPARg (NR concentration 270 nM, RXRa partner concentration 90 nM)
measurementNotes: PBM binding z-score (relative to random genomic background probes); higher = stronger binding; sequences stand for … in GC…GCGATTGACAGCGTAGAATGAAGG
Kindly provide the number alone.

Solved cases (5 shown):
TCTCGGAGGACAAGAAAGGTCAGAGCTCGACATC
0.954
CAGCCTAGGTCAGGTCCAGTATAGGAGGAACGTT
0.846
TATTGTAGATCAATAGAGGTTAAGAAAGTGCGCT
1.78
ATCGAAAGGTCGAAGGTAAGTATACCCACCCGAA
1.49
CAAACTAGGTCACAGAAGTCAAAGTCCGTGCGTA
9.03

Q: // PBM binding z-score lookup, key: TCATATAGGTAATACAGGTGCAAGTCGGCATCTA
Result: 2.67

Q: Next record, please: ATCTATAGGTAAAAGTTCAGTGAATCCCGAGGAT
Result: 3.05

Q: Next record, please: TCATATAAGTAAATGCTAGGTGAAAGTCCGATCT
Result: 0.569

Q: Next record, please: GCAGCTAGGTCAACTGATGGTCAGCTAAAGCTCG
Result: 4.15

Q: Next record, please: TATACAGGTTCAAAGGCCAGAGTACGAATGTCGA
Result: 1.44

Q: Next record, please: CGAAATAGGTCAAGGACAGTGAATCTCCGCACGC
Result: 7.31

Q: Next record, please: CCGACTGGGGCAAAGGTTACCAGACTCAGTACGA
Result: 5.88

###

Tested on: PPARg:RXRa 270nM:90nM, anti-RXR (NR concentration 270 nM, RXRa partner concentration 90 nM)
measurementNotes: PBM binding z-score (relative to random genomic background probes); higher = stronger binding; sequences stand for … in GC…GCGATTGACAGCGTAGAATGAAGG
Please mark True if the recorded PBM binding z-score is equal to or greater than 5, and False if it falls below.

CCTATTAGTTGACCATAAGGGCAACTGAAGCTCG
False
ATACCAAGGTGATCGTAAGGTCGTTGATACTAAC
False
ATCTCAAGGTAACAAGTTCAGTGAAAGAGAGGAC
False
GCTTACGGGTCAAAGGTTATAGCGTGAATAGAAT
True
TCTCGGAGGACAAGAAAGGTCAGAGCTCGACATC
False
CGTCAAAGTTCAACTAAGGTAACGTCAAGCACGC
True
TAGCCTAGGTGAGATCGGGCCAGTATACGCTATA
False
CCCAGTAGGTTATGGGGCATTCAGGCAACGGTGA
True
ATATGTAAGTTAGCTGGGGTCATTCAGACTAGGC
False
CAAACTAGGTCATGAGGTCAAAGTCCGCTTCCCG
True

We now examine a further sequence.
Q: Quick check, PBM binding z-score >= 5? TCTTGTAGATCAAAGGTTCAGAAAGCCGAAGCCT
Result: True

// provenance: the supplement of paper PMC6555819
